# Tested on: LNCaP cells
# procedure summary: LNCaP cell viability assay (MTS)
# Assay type: cell-based
# experimental context: Homo sapiens, LNCaP, 48 h, LNCaP cell line
readout kind: GI50 (µM)

Tell me the measured GI50 of CN(C)C[C@H](Cc1ccc(Cl)c(Cl)c1)NS(=O)(=O)c1ccc(OC(F)(F)F)cc1 , please.
22.8

Tell me the measured GI50 of CC[C@H](C)[C@H](NS(=O)(=O)c1ccc(OC(F)(F)F)cc1)C(=O)OC(C)(C)C , please.
57.9

Tell me the measured GI50 of CC(C)CCOc1ccccc1CCNS(=O)(=O)c1ccc(OC(F)(F)F)cc1 , please.
57

Tell me the measured GI50 of CN(C)CC(NS(=O)(=O)c1ccc(OC(F)(F)F)cc1)c1ccc(Cl)c(Cl)c1 (single isomer, unassigned) [Compound 148] , please.
12.7

A = O=S(=O)(NCC1(c2ccc(Cl)c(Cl)c2)CC1)c1ccc(OC(F)(F)F)cc1
B = Cc1cccc(CC(CO)NS(=O)(=O)c2ccc(OC(F)(F)F)cc2)c1 (stereo not shown)
C = COC(=O)c1cc(S(=O)(=O)NC(CN(C)C)c2ccc(Cl)c(Cl)c2)ccc1OC(F)(F)F (stereo not shown)
Put the items in order so that reported GI50 rises from first to last. Reply format: the labels, ordered as requested.
B, A, C

====

# System: LNCaP cells
# procedure summary: LNCaP cell viability assay (MTS)
# Type: cell-based
# experimental context: Homo sapiens, LNCaP, 48 h, LNCaP cell line
Structures can show the parent of a compound that is named as a salt.
readout kind: GI50 (µM)

Give LNCaP cells GI50 for CN=S(=O)(NC(CN(C)C)c1ccc(Cl)c(Cl)c1)c1ccc(OC(F)(F)F)cc1 (stereo not shown)
24.9

1 = COc1ccc(OC)c(CCCNS(=O)(=O)c2ccc(OC(F)(F)F)cc2)c1
2 = COc1ccc(S(=O)(=O)N2CCC(CNS(=O)(=O)c3ccc(OC(F)(F)F)cc3)CC2)cc1OC
3 = CNCC(NS(=O)(=O)c1ccc(OC(F)(F)F)cc1)c1ccc(Cl)c(Cl)c1 (stereo not shown)
Could you please sort these 3 entries by GI50 from high to low? Reply format: the labels, ordered as requested.
2, 1, 3

a = Cc1ccc(C(NS(=O)(=O)c2ccc(OC(F)(F)F)cc2)C(C)S(C)(=O)=O)cc1 (stereo not shown)
b = O=S(=O)(NCCC(O)(C(F)(F)F)C(F)(F)F)c1ccc(OC(F)(F)F)cc1
Lab note: check whether a or b shows the higher recorded GI50. // respond with label for picked entry
b

1 = O=S(=O)(NC(CC1CC1)c1ccccc1)c1ccc(OC(F)(F)F)cc1 (stereo not shown)
2 = CN(C)CC(NS(=O)(=O)c1ccc2c(c1)OC(F)(F)O2)c1ccc(Cl)c(Cl)c1 (stereo not shown)
3 = CN1CCN(CC(NS(=O)(=O)c2ccc(Oc3ccc(C(F)(F)F)cc3)cc2)c2ccc(Cl)c(Cl)c2)CC1 (stereo not shown)
Put the items in order so that reported GI50 rises from first to last. Reply format: the labels, ordered as requested.
3, 2, 1

A = NCC(NS(=O)(=O)c1ccc(OC(F)(F)F)cc1)c1ccc(Cl)c(Cl)c1 (stereo not shown) [Compound 225, hydrochloride]
B = Cc1ccc(S(=O)(=O)NC(CN(C)C)c2ccc(Cl)c(Cl)c2)cc1 (stereo not shown)
C = CC(C)CC(CCO)NS(=O)(=O)c1ccc(OC(F)(F)F)cc1 (stereo not shown)
Put the items in order so that reported GI50 rises from first to last. Reply format: the labels, ordered as requested.
C, A, B
(C: 5.47 µM, A: 21.8 µM, B: 51.8 µM)

a = CN(Cc1ccccc1Br)C(=O)CCNS(=O)(=O)c1ccc(OC(F)(F)F)cc1
b = CN(C)CC(NS(=O)(=O)c1ccc(Oc2ccc(C(F)(F)F)cc2)cc1)c1cccc(C(F)(F)F)c1 (stereo not shown)
Lab note: check whether a or b shows the higher recorded GI50. // respond with label for picked entry
a

I = CCCOC1CCN(CC(NS(=O)(=O)c2ccc(OC(F)(F)F)cc2)c2ccccc2)CC1 (stereo not shown)
II = C=CCCC(NS(=O)(=O)c1ccc(OC(F)(F)F)cc1)c1ccc(C(F)(F)F)cc1 (stereo not shown)
Looking at recorded values for GI50, does I or II come in lower? // respond with label for picked entry
II
(II: 20 µM, I: 42.4 µM)

I = CN(C)CC(NS(=O)(=O)c1cccc(F)c1)c1ccc(Cl)c(Cl)c1 (stereo not shown)
II = COC(=O)C(NS(=O)(=O)c1ccc(OC(F)(F)F)cc1)c1ccccc1Br (stereo not shown)
Lab note: check whether I or II shows the higher recorded GI50. // respond with label for picked entry
I

====

# System: LNCaP cells
# procedure summary: LNCaP cell viability assay (MTS)
# Type: cell-based
# experimental context: Homo sapiens, LNCaP, 48 h, LNCaP cell line
readout kind: GI50 (µM)

Answered examples (2):
Tell me the measured GI50 of Cc1ccc(C2(CNS(=O)(=O)c3ccc(OC(F)(F)F)cc3)CC2)c(C)c1 , please.
44

Tell me the measured GI50 of O=S(=O)(NC[C@H](c1ccc(F)cc1)N1CCNCC1)c1ccc(OC(F)(F)F)cc1 , please.
40.3

a = O=S(=O)(NC(Cc1cccc(Br)c1)CC(F)(F)F)c1ccc(OC(F)(F)F)cc1 (stereo not drawn)
b = COC(=O)CC(NS(=O)(=O)c1ccc(OC(F)(F)F)cc1)c1ccc(OC)c(Br)c1 (stereo not drawn)
c = CN1CCN(CC(NS(=O)(=O)c2ccc(Oc3ccccc3)cc2)c2ccc(Cl)cc2)CC1 (stereo not drawn)
Put the items in order so that reported GI50 rises from first to last. Reply format: the labels, ordered as requested.
c, b, a
(c: 12.1 µM, b: 39.1 µM, a: 59 µM)

====

# Tested on: LNCaP cells
# procedure summary: LNCaP cell viability assay (MTS)
# Format: cell-based
# experimental context: Homo sapiens, LNCaP, 48 h, LNCaP cell line
readout kind: GI50 (µM)

Answered examples (5):
Give LNCaP cells GI50 for CC(C)(NS(=O)(=O)c1ccc(OC(F)(F)F)cc1)C1(c2ccc(Cl)c(Cl)c2)CC1 [Compound 245]
45.2

Give LNCaP cells GI50 for O=[N+]([O-])c1ccc(S(=O)(=O)NCCNS(=O)(=O)c2ccc(OC(F)(F)F)cc2)cc1 [Compound 108]
65

Give LNCaP cells GI50 for COC(=O)CC(NS(=O)(=O)c1ccc(OC(F)(F)F)cc1)C1CCCCC1 (stereo not shown) [Compound 37]
60

Give LNCaP cells GI50 for CCOC(=O)C[C@@H](NS(=O)(=O)c1ccc(OC(F)(F)F)cc1)c1ccccc1Cl [Compound 14]
51.9

Give LNCaP cells GI50 for CCc1ccc(C(NS(=O)(=O)c2ccc(OC(F)(F)F)cc2)C(C)(C)C)o1 (stereo not shown) [Compound 17]
55.6

P = CN(C)CC(NS(=O)(=O)c1cccc(Cl)c1)c1ccc(Cl)c(Cl)c1 (stereo not shown) [Compound 163]
Q = Cc1ccc(CNS(=O)(=O)c2ccc(OC(F)(F)F)cc2)c(OCC2CC2)c1 [Compound 75]
Looking at recorded values for GI50, does P or Q come in lower? // respond with label for picked entry
Q
(Q: 30 µM, P: 46 µM)
